Here the recorded hPD-1 blockade assay IC50 is given for each entry.
# test system: full-length human PD-1 expressed on cells (human, UniProt Q15116 25-288)
# Sequence (Q15116 25-288 limits assumed): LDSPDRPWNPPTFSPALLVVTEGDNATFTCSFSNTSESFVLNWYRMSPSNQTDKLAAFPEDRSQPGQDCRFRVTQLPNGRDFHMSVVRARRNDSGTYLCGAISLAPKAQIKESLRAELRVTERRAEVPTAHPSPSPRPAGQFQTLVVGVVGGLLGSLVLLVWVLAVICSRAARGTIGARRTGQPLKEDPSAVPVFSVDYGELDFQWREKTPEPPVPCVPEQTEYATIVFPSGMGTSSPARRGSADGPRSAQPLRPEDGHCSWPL
# run description: cell-based or functional assay
Your answer is read as µg/mL, so omit the unit and give the number.

Solved cases below.
binder="MAB-19-0603 (antibody, IgG1, V domains shown, Recombinant humanized hIgG1-LALA antibody) VH: QVQLVESGGGLVQPGTSLRLSCSVSGFSLYSYNMGWVRQAPGKGLEYIGIISGGTIGHYASWAKGRFTISRDTSKTTLYLQMNSLTTEDTATYFCARAFYDDYDYNVWGPGTLVTVSS VL: DIVMTQSPSSLSASVGDRVTITCQSSQSVYGNNQLSWYQQKPGKAPKLLIYQASKLETGVPSRFSGSGSGTDFTLTISSLQPEDFATYYCAGGYSSSSDTTFGGGTKVVIK" units=µg/mL numeric_value=0.085
binder="MAB-19-0594 (antibody, IgG1, V domains shown, Recombinant humanized hIgG1-LALA antibody) VH: EVQLEESGGGLVKPGGSLRLSCAASGIDFSSVYYMCWVRQAPGKGLEWVSCIYVGSSGVSYYATWAKGRFTISRDNSKNTLYLQMNSLRAEDTAVYYCARAGYVGAVYVTLTRLDLWGRGTLVTVSS VL: DIQMTQSPSSLSASVGGTVTITCQSSQSIYTNNDLAWYQQKPGQPPKLLIYDASKLASGVPSRFSGSGSGTQFTLTISSLQSEDAATYYCLGGYDDDADNAFGGGTEVVVK" units=µg/mL numeric_value=0.311

Moving on to the next binder.
Q. Param item = MAB-19-0618 (antibody, IgG1, V domains shown, Recombinant humanized hIgG1-LALA antibody) VH: QVQLVESGGGLVQPGTSLRLSCSVSGFSLYSYNMGWVRQAPGKGLEYIGIISGGTIGHYASWAKGRFTISRDTSKTTLYLQMNSLTTEDTATYFCARAFYDDYDYNVWGPGTLVTVSS VL: AIQLTQSPSSLSASVGGTVTITCQSSQSVYGNNQLSWYQQKPGQPPKLLIYQASKLETGVPSRFRGSGSGTQFTLTISSLQSEDFATYYCAGGYSSSSDTTFGGGTEVVVK ; retrieve measured hPD-1 blockade assay IC50.
A. 0.057

Where do these numbers come from? They come from patent US20230399403A1.
